test: NBI-750142 concentration in cynomolgus monkey plasma by LC-MS/MS; format: in vivo, cynomolgus monkeys (Macaca fascicularis); conditions: cynomolgus monkey, intravenous, 0.026 mg/kg, GC786, 0.026 mg/kg i.v.

| Compound | Endpoint Unit | concentration at 120 min |
| --- | --- | --- |
| COc1cc2c(cc1OC)[C@H]1CN(C)[C@H](CC(C)(C)C)CN1CC2 [NBI-750142] | ng/mL | 2.69 |

###

assay: NBI-750142 concentration in cynomolgus monkey plasma by LC-MS/MS; format: in vivo, cynomolgus monkeys (Macaca fascicularis); details: cynomolgus monkey, intravenous, 0.52 mg/kg, EC865, 0.52 mg/kg i.v.
Property Measured: concentration at 150 min (ng/mL)

| Input Smiles | Val |
| --- | --- |
| COc1cc2c(cc1OC)[C@H]1CN(C)[C@H](CC(C)(C)C)CN1CC2 | 38.4 |

###

test: NBI-750142 concentration in cynomolgus monkey plasma by LC-MS/MS; type: in vivo, cynomolgus monkeys (Macaca fascicularis); details: cynomolgus monkey, intravenous, 0.026 mg/kg, GC786, 0.026 mg/kg i.v.

| Compound | Endpoint Unit | concentration at 150 min |
| --- | --- | --- |
| COc1cc2c(cc1OC)[C@H]1CN(C)[C@H](CC(C)(C)C)CN1CC2 [NBI-750142] | ng/mL | 3.69 |

###

test: NBI-750142 plasma concentration in healthy subjects; type: in vivo; settings: human, 18 h post single oral dose, across cohorts, approximately, read-out: NBI-750142 plasma concentrations at T2
Property Measured: concentration at 18 h

| Compound | Property Measured | Val |
| --- | --- | --- |
| COc1cc2c(cc1OC)[C@H]1CN(C)[C@H](CC(C)(C)C)CN1CC2 [NBI-750142] | concentration at 18 h | 0.3 to 10 ng/mL |

###

assay: NBI-750142 concentration in cynomolgus monkey plasma by LC-MS/MS; assay type: in vivo, cynomolgus monkeys (Macaca fascicularis); details: cynomolgus monkey, intravenous, 0.78 mg/kg, GC786, 0.78 mg/kg i.v.

| Input Smiles | concentration at 90 min |
| --- | --- |
| COc1cc2c(cc1OC)[C@H]1CN(C)[C@H](CC(C)(C)C)CN1CC2 | 69.9 ng/mL |

###

assay: NBI-750142 concentration in cynomolgus monkey plasma by LC-MS/MS; type: in vivo, cynomolgus monkeys (Macaca fascicularis); conditions: cynomolgus monkey, intravenous, 0.084 mg/kg, EC865, 0.084 mg/kg i.v.
Property Measured: concentration at 150 min (ng/mL)

| Molecule | Property Measured | Val |
| --- | --- | --- |
| COc1cc2c(cc1OC)[C@H]1CN(C)[C@H](CC(C)(C)C)CN1CC2 [NBI-750142] | concentration at 150 min | 7.34 |

###

assay: NBI-750142 concentration in cynomolgus monkey plasma by LC-MS/MS; format: in vivo, cynomolgus monkeys (Macaca fascicularis); settings: cynomolgus monkey, intravenous, 0.026 mg/kg, GC786, 0.026 mg/kg i.v.

| Input Smiles | concentration at 30 min, ng/mL |
| --- | --- |
| COc1cc2c(cc1OC)[C@H]1CN(C)[C@H](CC(C)(C)C)CN1CC2 | 2.31 |
